Cited source for all entries: the supplement of paper PMC7125110

B1: glmS ribozyme (parent)
chain: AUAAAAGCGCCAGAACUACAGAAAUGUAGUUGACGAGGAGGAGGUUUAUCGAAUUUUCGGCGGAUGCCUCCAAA

Variants of: B1
Assay Remarks: kcat; higher = faster cleavage; RNA array
Run Conditions: with glucosamine-6-phosphate
Variants at the floor of the assay were thinned out.
Provide the recorded log10 of kcat for the entries that follow.
Log scale reminder: kcat in s⁻¹, then log10 taken.

// log10 of kcat value for AUAAAAGCGCCUGAACUACAGAAAUGUAGUUUACGAGGAGGAGGUUUAUCGAAUUUUCGGCGGAUGCCUCCAAA [A12U G32U] : -3.30

Recorded result, AUAAAAGCGUCAGAACUACAGAAAUGUAGUUGACGAGGAGGAGGUUUAUCGAAUUUUCGGCGGAUGACUCCAAA [C10U C67A] , log10 of kcat: -4.95

response.value for AUAAAAGCGCCAGAACUACAGAAAUGUAGUUGACGAGGAGGAGGUCUAUCGAAUUUUUGGCGGAUGCCUCCAAA [U46C C58U] (field: log10 of kcat) = -4.47

Per the records, this variant ( AUAAAAGCGCCAGACCUACAGAAAUGUAGUUGACGAGGAGGAGGUUUAUCGAAUGUUCGGCGGAUGCCUACAAA [A15C U55G C70A] ) has log10 of kcat equal to -4.33

// recorded log10 of kcat for AUAAAAGCGCCAGAACUACAGAAAUGUAGUUGACGAGGAGGAGGCUUAUCGAAUGUUCGGCGGAUGCCUCCAAA [U45C U55G] : -2.46

Field log10 of kcat (entry AUAAAAGCGCCAGAACUACAGAAAUGUAGUGGACGAGGAGGAGGUUUAUCGAAUUUUCGGCGGAUCCCUCCAAA [U31G G66C] ) reads -3.86

Kindly note the recorded log10 of kcat for AUAAAAGCGCCAGAACUACAGAAAUGUAGUUGACGAGGACGGGGUUUAUCGAAUUUUCGGCGGAUGCCUCCAAA [G40C A42G] , which is -2.50

Record summary for AUAAAAGCGCCAGAACUACAGAAAUGUAGUUGACGAGGAAGAGGUUUAUCGAUUUUUCGGCGGAUGCCUCCAAA [G40A A53U] : reported log10 of kcat = -2.21

Kindly note the recorded log10 of kcat for AUAAAAGCGCCAGAACUACAGAAAUGUAGUUGACAAGGAGGAGGUUUAUGGAAUUUUCGGCGGAUGCCUCCAAA [G35A C50G] , which is -3.11

The recorded log10 of kcat for entry AUAAAAGCGCCAGAACUACAGAAAUGUAGCUGACGAGGAGGAGGUUUAUCGAAUUUUCGGCGGAUGCCUUCAAA [U30C C70U] equals -3.28

The variant listed as AUAAAAGCGCCAGAACUACAGAAAUGUAGUUGACGAGGAUGAGGUUUGUCGAAUUUUCGGCGGAUGCCUCCAAA [G40U A48G] has a reported log10 of kcat of -4.05

Quick note, log10 of kcat for AUAAAAGCGCCAGAACUACAGAAAUGUAGUUGACGAGGAGGAGGUUUAUUGAAUUUUCGGCGGGUGCCUCCAAA [C50U A64G] landed at -3.55

# variant AUAAAAGCGCCAGAACUACAGAAAUGUAGUUGACGAGGAGGAGGUUCAUCGAAUUUUUGGCGGAUGCCUCCAAA [U47C C58U] ; its log10 of kcat = -3.96

# log10 of kcat of AUAAAAGCGCCAGAACUACAGAAAUGUAGUUGACGAGGAGGAGGUUUAUCGAAUUUUCGGCGGAAACCUCCAAA [U65A G66A] = -3.17

GET /value?item= AUAAAAGCGCCAGAACUACAGAAAUGUAGUUGACGAGGAGGAGGUUUCUCGAAUUCUCGGCGGAUGCCUCCAAA [A48C U56C] &field=log10 of kcat returns -4.26

The variant AUAAAAGCGCCAAAACUACAGAAAUGUAGUUGACGAGGAGGAGGUUUAUCGAAUUUUCGGCGGAUGCGUCCAAA [G13A C68G] showed log10 of kcat equal to -4.74

Recorded log10 of kcat (variant AUAAAAGCGCCAGAACUACAGAAAUGUAGUUGACGAGGAGGAGGUUUAUCGAACUUUCGGCGGAUGCCUGCAAA [U54C C70G] ): -3.73

// field: log10 of kcat; key: AUAAAAGCGCCAGAACUACAGAAAUGUAGUUGACGAGGGGGAGGUUUAUCGAAUUCUCGGCGGAUGCCUCCAAA [A39G U56C] ; value = -2.10

Value of measured log10 of kcat for the entry AUAAAAGCGCUAGAACUACAGAAAUGUAGUUGACGAGGAGGAGGUUUAUCGAAUUUUCGGCGGAUUCCUCCAAA [C11U G66U] : -4.31

Per the records, this variant ( AUAAAAACGCCAGAACUACAGAAAUGUAGUUGACGAGGAGGAGGUUUAUCGAAUUUUCGGCGGAUGCCUCCAAA [G7A] ) has log10 of kcat equal to -4.36

So for AUAAAAGCGCCAGAACUACAGAAAUGUAGUUGACGAGGAGGAGGUUUAUCGAAUUUUCGGCGGUUGCCGCCAAA [A64U U69G] , the logged log10 of kcat turned out to be -4.38

Value of log10 of kcat reported for the variant AUAAAAGCGCCAGAAUUACAGAAAUGUAGUUGACGAGGAGGAGGUUUUUCGAAUUUUGGGCGGAUGCCUGCAAA [C16U A48U C58G C70G] is -4.36

Memo: AUAAAAGCGCCCGAACUACAGAAAUGUAGUUGACGAGGAGGAGGAUUAUCGAAUUUUCGGCGGAUGCCUCCAAA [A12C U45A] , reported log10 of kcat: -1.38

Reported log10 of kcat of AUAAAAGCGCCAGAACUACAGAAAUGUAGUUGACGAGGAGGAGGUUUAUCGAAUUUUCGGCGGAUGUCUUCAAA [C67U C70U] : -3.38

AUAAAAGCGCCACAACUACAGAAAUGUAGUUGACGAGGAGGAGGUUUAUCGAACUUUCGGCGGAUGCCUCCAAA [G13C U54C] has a reported log10 of kcat of -3.87

Looking up AUAAAAGCGCCAGAACUACAGAAAUGUAGUGGACGAGGAGGAGGUUUAUUGAAUUUUCGGCGGAUGCCUCCAAA [U31G C50U] , I found its log10 of kcat recorded as -4.65

For AUAAAAGCGCCAGAACUACAGAAAUGUAGUUGACGAGGAGGAGGUUUAUCGAAUUUUUGGCGGAUGCAUCCAAA [C58U C68A] the variant record lists log10 of kcat as -4.45

The measured log10 of kcat associated with AUAAAAGCGCCAGACCUACAGAAAUGUAGUUGACGAGGAGGAGGUUUAUCGAAUUUUCGGCGGAUGCAUCCAAA [A15C C68A] reads -4.54

Looking up AUAAAAGCGCCAGAACUACAGAAAUGUAGUUGACGAGGAGGAGGUUUAUCGAAUUUUCGGCCGAUGCGUCCAAA [G62C C68G] , I found its log10 of kcat recorded as -4.97

// log10 of kcat value for AUAAAUGCGCCAGAACUACAGAAAUGUAGGUGACGAGGAGGAGGUUUAUCGAAUUUUCGGCGGAUGCCUCCAAA [A6U U30G] : -4.39
